Just for reference, ChEMBL document CHEMBL1944614 is where these values come from.

# TEST_TARGET: Amine oxidase [flavin-containing] A (Homo sapiens, UniProt P21397)
# Sequence (P21397 whole entry): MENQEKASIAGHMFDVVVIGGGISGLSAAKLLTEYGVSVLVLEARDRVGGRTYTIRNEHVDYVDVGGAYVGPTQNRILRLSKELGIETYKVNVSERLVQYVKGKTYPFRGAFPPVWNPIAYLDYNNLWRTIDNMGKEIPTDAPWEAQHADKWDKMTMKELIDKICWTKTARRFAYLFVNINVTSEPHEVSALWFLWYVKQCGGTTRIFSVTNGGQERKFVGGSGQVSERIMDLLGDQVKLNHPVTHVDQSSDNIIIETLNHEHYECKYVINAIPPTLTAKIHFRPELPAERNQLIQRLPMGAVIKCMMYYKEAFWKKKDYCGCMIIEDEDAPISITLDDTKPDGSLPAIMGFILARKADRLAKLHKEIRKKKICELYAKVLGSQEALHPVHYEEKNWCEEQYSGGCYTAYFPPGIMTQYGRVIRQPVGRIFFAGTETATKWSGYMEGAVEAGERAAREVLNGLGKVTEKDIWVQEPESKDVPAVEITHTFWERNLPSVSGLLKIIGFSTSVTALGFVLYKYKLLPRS
# METHOD_DESCRIPTION: Inhibition of human recombinant MAOA using kynuramine as substrate by fluorimetry
PROPERTY_NAME: IC50

Look over these answered cases.
compound=Cc1[nH]n(-c2ccccc2)c(=O)c1/C=N/NC(=O)c1cccnc1 property_name=IC50 value="> 100 µM"
compound=CN(C)c1ccc(/C=C2\Oc3cc(O)ccc3C2=O)cc1 property_name=IC50 value="0.979 µM"
compound=CN(C)c1ccc(/C=C2\Oc3ccccc3C2=O)cc1 property_name=IC50 value="0.268 µM"
compound=COc1ccc(NC(=O)N2CCc3ccccc32)cc1 property_name=IC50 value="> 100 µM"
compound="CCOC1CC(c2ccccc2)=NN1c1ccc([N+](=O)[O-])cc1 (centres undefined)" property_name=IC50 value="5.36 µM"

Endpoint output: IC50 of `Cc1ccc2c(c1)O/C(=C\c1ccccc1)C2=O` . Value?
40.2 µM

Same again, this time with `O=C1/C(=C/c2ccccc2O)Oc2cc(O)ccc21`
17.7 µM

Same again, this time with `O=C1/C(=C/c2ccc(Cl)cc2)Oc2ccccc21`
0.709 µM

Same again, this time with `O=C1NC(=O)/C(=C\c2ccc(Br)cc2)S1`
43.5 µM
